# Procedure text: Tmax in Sprague-Dawley rat at 20 mg/kg, po by LC-MS/MS analysis
# Format: ADME, organism-based
# Conditions: in vivo
Outcome measure: Tmax (h)
Your answer is read as h, so omit the unit and give the number.

What does the data say about its Tmax? Entry: `C=CCNC(=S)Nc1cc(C(=O)Nc2ccc(F)c(C)c2)c(C)cc1F`
1.83

----------
# Procedure text: Selectivity index, ratio of CC50 for cytotoxicity against human HePAD38 cells to EC50 for antiviral activity against Hepatitis B virus infected in human HePAD38 cells
# Format: toxicity, cell-based
# Conditions: read-out: Ratio CC50/EC50
Give True when the value for selectivity ratio is at least 20. Give False when it is less.

Consider the worked cases shown below.
- Compound: "Cc1cc(NC(=O)c2cc(NC(=O)C(=O)NC3CCCC3)c(F)cc2Br)ccc1F"
  Group: "False"
- Compound: "Cc1cc(NC(=O)c2cc(NC(=O)NC(C)C)c(F)cc2Br)ccc1F"
  Group: "False"
- Compound: "Cc1cc(NC(=O)c2cc(NC(=S)NC(C)C(F)(F)F)c(F)cc2Br)ccc1F (stereo not given)"
  Group: "True"
- Compound: "O=C(Nc1cc(F)cc(F)c1)c1cc(S(=O)(=O)NC2CCCC2)c(F)cc1Br"
  Group: "True"
- Compound: "C=CC(=O)Nc1cc(C(=O)Nc2ccc(F)c(C)c2)c(Br)cc1F"
  Group: "False"

Given `COc1ccc(CNC(=O)Nc2cc(C(=O)Nc3ccc(F)c(C)c3)c(Br)cc2F)cc1` , state whether its selectivity ratio is at least 20.
True

Textbook exercise: given the entry `Cc1cc(NC(=O)c2cc(NC(=O)C3CCCCC3)c(F)cc2Br)ccc1F` , state whether its selectivity ratio is greater than or equal to 20.
False

Does `O=C(Nc1cc(F)c(F)c(F)c1)c1ccc(F)c(S(=O)(=O)N2CCC(O)CC2)c1` have a reported selectivity ratio of at least 20?
True

Check the entry `CCN(CC)S(=O)(=O)c1cc(C(=O)Nc2cc(F)c(F)c(F)c2)c(Br)cc1F` : does selectivity ratio equal or exceed 20?
False
